Tested on: S. typhimurium C7731
Format: cell-based, Salmonella typhimurium
condition_set: C7731, 16 h
Residues, ends and D or L forms follow the SMILES beside them.
test_readout: MIC (μM) Gram-negative S. typhimurium 29213 (µM)

>  <molecule>
NCCCC[C@H](NC(=O)CNC(=O)[C@H](CC(N)=O)NC(=O)[C@H](CCCCN)NC(=O)[C@H](Cc1c[nH]c2ccccc12)NC(=O)[C@H](CCCCN)NC(=O)[C@H](Cc1c[nH]c2ccccc12)NC(=O)[C@H](CCCCN)NC(=O)[C@@H](N)Cc1c[nH]c2ccccc12)C(=O)N[C@@H](Cc1c[nH]c2ccccc12)C(=O)N[C@@H](CCCCN)C(=O)N[C@@H](Cc1c[nH]c2ccccc12)C(=O)N[C@@H](CCCCN)C(=O)N[C@@H](Cc1c[nH]c2ccccc12)C(=O)O [C6] (H-WKWKWKNGKWKWKW-OH)

>  <unit_string>
µM

>  <test_value>
8

$$$$
